System: 485176-168-R4-J1-PDC complex spheroid growth;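 also: spheroids exposed to compounds for seven days before readout; luminescence viability expressed relative to DMSO vehicle wells set as 100%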
Assay: Anticancer human tumor 485176-168-R4-J1-PDC patient-derived pancreatic adenocarcinoma cell line growth inhibition [RAS]
Conditions: second compound 0.003 µM; first compound 0.1 µM; active compounds read low
measured_parameter: viability, T/C

Reference set, count: 7
[
  {
    "molecule": "NC1c2ccccc2OC12CCN(c1cnc3c(N4CCCc5ncccc54)n[nH]c3n1)CC2 (stereo not drawn) + CCn1c(-c2cccnc2C(C)OC)c2c3cc(ccc31)N1CCOC(CC(NC(=O)C(C(C)C)N(C)C(=O)C3(F)CCN(C(=O)C#CC(C)(C)N(C)C)CC3)C(=O)N3CCCC(N3)C(=O)OCC(C)(C)C2)C1",
    "viability, T/C": "89.4%"
  },
  {
    "molecule": "CC(=O)OC12COC1CC(O)C1(C)C(=O)C(O)C3=C(C)C(OC(=O)C(O)C(NC(=O)OC(C)(C)C)c4ccccc4)CC(O)(C(OC(=O)c4ccccc4)C21)C3(C)C (stereo not drawn) + CCn1c(-c2cc(N3CCN(C)CC3)cnc2C(C)OC)c2c3cc(ccc31)-c1csc(n1)CC(NC(=O)C1CC1C)C(=O)N1CCCC(N1)C(=O)OCC(C)(C)C2",
    "viability, T/C": "13.2%"
  },
  {
    "molecule": "CC(C)NCC(C(=O)N1CCN(c2ncnc3c2C(C)CC3O)CC1)c1ccc(Cl)cc1 (stereo not drawn) + CCn1c(-c2cccnc2C(C)OC)c2c3cc(ccc31)N1CCOC(CC(NC(=O)C(C(C)C)N(C)C(=O)C3(F)CCN(C(=O)C#CC(C)(C)N(C)C)CC3)C(=O)N3CCCC(N3)C(=O)OCC(C)(C)C2)C1",
    "viability, T/C": "91%"
  },
  {
    "molecule": "NC1c2ccccc2OC12CCN(c1cnc3c(N4CCCc5ncccc54)n[nH]c3n1)CC2 (stereo not drawn) + CCn1c(-c2cc(N3CCN(C)CC3)cnc2C(C)OC)c2c3cc(ccc31)-c1csc(n1)CC(NC(=O)C1CC1C)C(=O)N1CCCC(N1)C(=O)OCC(C)(C)C2",
    "viability, T/C": "80.9%"
  },
  {
    "molecule": "O=C(c1ccc(F)c(F)c1Nc1ccc(I)cc1F)N1CC(O)([C@@H]2CCCCN2)C1 + CCn1c(-c2cccnc2C(C)OC)c2c3cc(ccc31)N1CCOC(CC(NC(=O)C(C(C)C)N(C)C(=O)C3(F)CCN(C(=O)C#CC(C)(C)N(C)C)CC3)C(=O)N3CCCC(N3)C(=O)OCC(C)(C)C2)C1",
    "viability, T/C": "58%"
  },
  {
    "molecule": "C[C@@H](NC(=O)c1ncnc(N)c1Cl)c1ncc(C(=O)Nc2cc(C(F)(F)F)c(Cl)cn2)s1 + CCn1c(-c2cccnc2C(C)OC)c2c3cc(ccc31)N1CCOC(CC(NC(=O)C(C(C)C)N(C)C(=O)C3(F)CCN(C(=O)C#CC(C)(C)N(C)C)CC3)C(=O)N3CCCC(N3)C(=O)OCC(C)(C)C2)C1",
    "viability, T/C": "89.4%"
  },
  {
    "molecule": "Nc1ccn(C2OC(CO)C(O)C2(F)F)c(=O)n1 (stereo not drawn) + CCn1c(-c2cccnc2C(C)OC)c2c3cc(ccc31)N1CCOC(CC(NC(=O)C(C(C)C)N(C)C(=O)C3(F)CCN(C(=O)C#CC(C)(C)N(C)C)CC3)C(=O)N3CCCC(N3)C(=O)OCC(C)(C)C2)C1",
    "viability, T/C": "7.59%"
  }
]

Now look at this entry.
Prompt: Sample CCC(CC)c1cc(NC2CCC(N)C2)n2nccc2n1 (stereo not drawn) + CCn1c(-c2cccnc2C(C)OC)c2c3cc(ccc31)N1CCOC(CC(NC(=O)C(C(C)C)N(C)C(=O)C3(F)CCN(C(=O)C#CC(C)(C)N(C)C)CC3)C(=O)N3CCCC(N3)C(=O)OCC(C)(C)C2)C1 — what was its viability, T/C?
Completion: 104%
